Target: Recombinant Human CTLA4-Fc chimera (R&D systems) (human) (UniProt P16410)
Assay: ELISA, signal over SA
reported.metric: ELISA S/N(SA)

INSERT INTO measurements (binder, endpoint_result) VALUES
  ('GGCRHPFLPIFSKHFCEL (peptide, not shown: large carriers; small tags and cut ends) [C4m3127-4th-NNS6-83]', 20.7),
  ('GGCLHPFLPIRSVHFCLR (peptide, not shown: large carriers; small tags and cut ends) [C4m3127-4th-NNS6-79]', 12.8),
  ('GGCSHPQLPILSDHFCSA (peptide, not shown: large carriers; small tags and cut ends) [C4m#19-5th4w-NN6-20]', 30.6),
  ('GGCRHPFLPIVSFHFCPF (peptide, not shown: large carriers; small tags and cut ends) [C4m#19-5th2w-NNS6-90]', 19.7);

P = GGCRHPHLPIWSWHFCGR (peptide, not shown: large carriers; small tags and cut ends) [C4m#19-5th4w-NN6-23]
Q = GGCPHPWLPIASVHFCPF (peptide, not shown: large carriers; small tags and cut ends) [C4m#19-5th4w-NN6-71]
**Query** Identify the item whose ELISA S/N(SA) is the smaller number: P or Q Please respond with the label that marks your chosen entry.
**Result** Q
